# Tested On: human APJ receptor (Homo sapiens (Human))
# Sequence (P35414 whole entry): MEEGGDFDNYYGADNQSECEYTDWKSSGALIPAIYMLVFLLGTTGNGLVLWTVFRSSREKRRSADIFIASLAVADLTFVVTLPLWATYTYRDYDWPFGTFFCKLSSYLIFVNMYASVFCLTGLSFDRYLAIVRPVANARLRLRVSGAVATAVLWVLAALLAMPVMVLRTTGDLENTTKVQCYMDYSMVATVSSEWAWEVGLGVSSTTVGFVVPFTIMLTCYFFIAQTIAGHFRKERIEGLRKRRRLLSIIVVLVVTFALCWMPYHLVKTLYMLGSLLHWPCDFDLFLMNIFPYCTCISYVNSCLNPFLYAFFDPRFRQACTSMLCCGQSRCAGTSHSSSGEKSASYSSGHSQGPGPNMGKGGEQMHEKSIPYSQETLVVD
# Measurement Notes: biochemical
# Condition Label: read-out: Activity hAPJ SPA EC50 IP
Experimental Readout: log10 EC50 (log10 of the value in µM)
Reminder: these figures are log10 of reported EC50, in µM before transformation.

Test system human APJ receptor (Homo sapiens (Human)); read-out log10 EC50; what value for COc1cccc(OC)c1-n1c(NS(=O)(=O)[C@@H](C)[C@H](OC)c2ncc(C)cn2)nnc1-c1cccc(OCCO)n1 ? -3.02

Test system human APJ receptor (Homo sapiens (Human)); read-out log10 EC50; what value for COc1cccc(-c2nnc(NS(=O)(=O)[C@H](C)[C@@H](O)C(C)(C)C)n2-c2c(OC)cccc2OC)n1 (mixture of isomers) ? -1.38

Test system human APJ receptor (Homo sapiens (Human)); read-out log10 EC50; what value for CCNC(=O)c1cccc(-c2nnc(NS(=O)(=O)[C@@H](C)Cc3ncc(F)cn3)n2-c2c(OC)cccc2OC)n1 ? -2.20

Test system human APJ receptor (Homo sapiens (Human)); read-out log10 EC50; what value for COc1cnc([C@@H](C)[C@H](C)S(=O)(=O)Nc2nnc(-c3cncc(C)c3)n2-c2c(F)cccc2F)cn1 ? -2.18

Test system human APJ receptor (Homo sapiens (Human)); read-out log10 EC50; what value for COc1cccc(OC)c1-n1c(NS(=O)(=O)[C@@H](C)[C@H](O)c2nc(C)c(C)s2)nnc1-c1cncc(C)c1 (single isomer, unassigned) [Example 291.0] ? -2.74

Test system human APJ receptor (Homo sapiens (Human)); read-out log10 EC50; what value for COc1cccc(OC)c1-n1c(NS(=O)(=O)[C@@H](C)[C@H](O)c2nc(C)c(C)s2)nnc1-c1cncc(C)c1 (single isomer, unassigned) [Example 293.0] ? -1.89

Test system human APJ receptor (Homo sapiens (Human)); read-out log10 EC50; what value for COc1cccc(-c2nnc(NS(=O)(=O)[C@@H](C)[C@@H](O)C3CC(F)(F)C3)n2-c2c(OC)cccc2OC)n1 (single isomer, unassigned) [Example 722.0] ? -2.77

Test system human APJ receptor (Homo sapiens (Human)); read-out log10 EC50; what value for CNc1cccc(-c2nnc(NS(=O)(=O)[C@@H](C)[C@H](C)c3ncc(F)cn3)n2-c2c(OC)cccc2OC)n1 ? -3.85

Test system human APJ receptor (Homo sapiens (Human)); read-out log10 EC50; what value for COc1cccc(OC)c1-n1c(NS(=O)(=O)[C@@H](C)[C@@H](OCCO)c2ncc(C)cn2)nnc1-c1cncc(C)c1 (single isomer, unassigned) [Example 409.0] ? -1.54

Test system human APJ receptor (Homo sapiens (Human)); read-out log10 EC50; what value for COc1cccc(-c2nnc(NS(=O)(=O)[C@@H](C)[C@H](O)c3ccc(F)cc3)n2-c2c(OC)cccc2OC)n1 (single isomer, unassigned) [Example 284.0] ? -1.89

Test system human APJ receptor (Homo sapiens (Human)); read-out log10 EC50; what value for COc1cccc(OC)c1-n1c(NS(=O)(=O)/C(C)=C(\C)c2ncc(F)cn2)nnc1-c1cncc(C)c1 ? -1.74

Test system human APJ receptor (Homo sapiens (Human)); read-out log10 EC50; what value for COc1cccc(OC(F)F)c1-n1c(NS(=O)(=O)[C@@H](C)[C@H](OC)c2ncc(C)cn2)nnc1-c1cncc(C)c1 ? -3.12

Test system human APJ receptor (Homo sapiens (Human)); read-out log10 EC50; what value for COc1cccc(OC)c1-n1c(NS(=O)(=O)[C@H](C)[C@@H](O)c2cn3ccccc3n2)nnc1-c1cccnc1 (single isomer, unassigned) [Example 735.0] ? -3.32

Test system human APJ receptor (Homo sapiens (Human)); read-out log10 EC50; what value for COc1cccc(OC)c1-n1c(NS(=O)(=O)[C@H](C)[C@@H](OC)c2ccc(C#N)cn2)nnc1-c1cncc(C)c1 (single isomer, unassigned) [Example 555.0] ? -1.39

Test system human APJ receptor (Homo sapiens (Human)); read-out log10 EC50; what value for CCO[C@H](c1ncc(Cl)cn1)[C@H](C)S(=O)(=O)Nc1nnc(-c2cncc(C)c2)n1-c1c(OC)cccc1OC [Example 610.0] ? -3.52

Test system human APJ receptor (Homo sapiens (Human)); read-out log10 EC50; what value for COc1cccc(-c2nnc(NS(=O)(=O)[C@@H](C)[C@H](C)c3ccc(Cl)cn3)n2C2CCOCC2)n1 ? -1.89

Test system human APJ receptor (Homo sapiens (Human)); read-out log10 EC50; what value for COc1cccc(OC)c1-n1c(NS(=O)(=O)CCN2C(=O)N(C)CC[C@@H]2C)nnc1-c1cncc(C)c1 ? -2.60

Test system human APJ receptor (Homo sapiens (Human)); read-out log10 EC50; what value for COc1cccc(-c2nnc(NS(=O)(=O)[C@@H](C)[C@@H](O)C(C)(C)C)n2-c2c(OC)cccc2OC)n1 (single isomer, unassigned) [Example 436.0] ? -1.00

Test system human APJ receptor (Homo sapiens (Human)); read-out log10 EC50; what value for CCS(=O)(=O)Nc1nnc(-c2cccc(C)n2)n1-c1c(OC)cccc1OC ? -0.08

Test system human APJ receptor (Homo sapiens (Human)); read-out log10 EC50; what value for COc1cccc(-c2nnc(NS(=O)(=O)[C@@H](C)[C@H](O)c3ccc(F)cc3)n2-c2c(OC)cccc2OC)n1 (single isomer, unassigned) [Example 287.0] ? -1.85

Test system human APJ receptor (Homo sapiens (Human)); read-out log10 EC50; what value for COc1cccc(-c2nnc(NS(=O)(=O)[C@@H](C)[C@H](OC)c3ncc(C)cn3)n2-c2cccc(Br)c2)n1 ? -1.92

Test system human APJ receptor (Homo sapiens (Human)); read-out log10 EC50; what value for COc1cccc(OC)c1-n1c(NS(=O)(=O)[C@@H](C)[C@@H](OC(C)C)c2ncc(C)cn2)nnc1-c1cccnc1 (single isomer, unassigned) ? -2.96

Test system human APJ receptor (Homo sapiens (Human)); read-out log10 EC50; what value for COc1cnc([C@@H](OC(C)C)[C@@H](C)S(=O)(=O)Nc2nnc(-c3cncc(C)c3)n2-c2c(OC)cccc2OC)cn1 (single isomer, unassigned) ? -1.46

Test system human APJ receptor (Homo sapiens (Human)); read-out log10 EC50; what value for COc1cccc(-c2nnc(NS(=O)(=O)[C@@H](C)[C@H](OC)c3ncc(C)cn3)n2-c2cccc(Cl)c2)n1 ? -1.62
